Target: T1, human IgG3 (Biodesign, Cat. No. A50186H) (human)
T1 construct: Bought immunoglobulin coated on the plate
Assay: ELISA on coated immunoglobulin
property: A290 nm (A290 nm)
Numbers only, in A290 nm.

A290 nm measured on 6.605.1 (recombinant) (antibody, human IgG2, kappa, V domains shown, Human IgG2 kappa; leader omitted; also called recombinant 6.605.1) VH: QVHLVQSGAEVKMPGASVKVSCKASGYTFTSYGISWVRQAPGQGLEWMGWISAYNGNTNYAQKLQGRITMTTDTSTSTAYMDLRSLRSDDTAVYYCARDGDYYDPFDYWGQGTLVTVSS VL: DIQMTQSPSSLSASVGDRVTITCRTSQSISNWLNWYQQKPGKAPKLLIYGASTLKSGVPSRFSGSESGTDFTLTISSLQPEDFATYYCQQSYSTPPTFGQGTKVEIKR = 0.05
